B1: GAGE1 (parent)
chain: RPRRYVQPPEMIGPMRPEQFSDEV

# Variants of: B1
# assay-method-text: protein stability index of a GFP-peptide fusion (GPS, HEK-293T) (PSI 1-6); higher = more stable;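 note: lentivirally expressed fusions sorted by FACS into six bins by GFP to DsRed ratio, PSI derived from sequencing read proportions per bin multiplied by bin number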
# assay-conditions: c terminus: a fixed tail appended
For each of the variants below, state its protein stability index.
No unit in the answer, please; the number alone is enough.

If you can, please state the reported protein stability index value of Q7A .
3.77

Fill blank: measured protein stability index of the variant V6F is ____.
3.39

Given the variant G13L , what is its reported protein stability index?
3.71

// returns reported protein stability index for input I12E
4.57

protein stability index lookup needed for Q19N , thanks.
3.79

Reported protein stability index for V6L : what is it?
3.69

Query (variant): E23H ; field requested: protein stability index
3.6

Any idea what its protein stability index is? The variant is P2S
3.92

Please report the recorded protein stability index for M15I .
4.12

State the recorded protein stability index for this entry: P17G
4.55

Form field: reported protein stability index of E18Q
3.56

Quick check: protein stability index of E23C ?
3.58

Record request: protein stability index value, item P17R
3.96

Reported protein stability index for R4G : what is it?
4.12

Which protein stability index reading was recorded for the variant Y5T ?
4.45

What protein stability index value was documented for this variant, E18T ?
3.84

# input variant: P8Y ; wanted: its protein stability index
3.52

Any idea what protein stability index was measured for P8S ?
4.36

Which protein stability index is listed for R16H ?
4.29

Quick check: protein stability index of M11Q ?
3.84

Recorded protein stability index for Q7S , please?
4.24

Which protein stability index value is on record for P9Q ?
4.52

# protein stability index lookup, item P9R
4.36

Name the reported protein stability index value associated with the variant R3K
4.02

Look at this variant and give its reported protein stability index. R1C
4.07

What value of measured protein stability index is listed for Q7F ?
3.87

For the variant shown here, I12R , give the reported protein stability index.
4.35

State the recorded protein stability index for this entry: R1T
4.01

Fill blank: measured protein stability index of the variant R1A is ____.
3.63

Look up protein stability index for this variant: G13R
4.19

Query (variant): F20N ; field requested: protein stability index
4.8

Please give the measured protein stability index for this variant: M15A
4.21

Can you share its protein stability index? I mean this variant: E10Y
3.18

Item under review: P17K . Reported protein stability index?
4.14

Quick check: protein stability index of Q19C ?
4.16

I have this variant here, E18G , and I need its recorded protein stability index.
3.86

Reported protein stability index for E23W : what is it?
2.95

Given the entry E10S , report its measured protein stability index.
4.08

Consider the variant shown here: R16I What is its recorded protein stability index?
4.44

Given E10A , state its recorded protein stability index.
4.15

I have this variant here, D22T , and I need its recorded protein stability index.
3.76

Consider the variant F20G and give its measured protein stability index.
4.85

Which protein stability index is listed for V6H ?
3.69

Which measured protein stability index value corresponds to Q7W ?
3.73

Looking for the measured protein stability index of M15K , can you help?
4.48

Look up protein stability index for this variant: M15H
3.69
